Provide the recorded % p24 production for the entries that follow.
- Test system: replication defective HIV generated by 8e5 cells
- procedure details: p24 production by 8e5 cells (p24 capture ELISA of cell lysates)
- Type: cell-based, HIV; human T-cell line 8e5
- conditions used: 2 μM, 4 days, Table 2; relative to cells treated with random control oligonucleotide SEQ. ID. NO. 47
Field: numeric (%). Do not append units.

-- ask Which % p24 production value belongs to GCTTCTTCCTGCCATAGGAGA (GCTTCTTCCTGCCATAGGAGA; chemistry not given here) [SEQ. ID. NO. 33] ?
-- reply 109

-- ask Which % p24 production value belongs to ATTGGTACAAGCAGTTTTAGGCT (ATTGGTACAAGCAGTTTTAGGCT; chemistry not given here) [SEQ. ID. NO. 31] ?
-- reply 100

-- ask Which % p24 production value belongs to CGGGCCTGTCGGGTCCCCTCGGGA (CGGGCCTGTCGGGTCCCCTCGGGA; chemistry not given here) [SEQ. ID. NO. 36] ?
-- reply 71

-- ask Which % p24 production value belongs to CTTCGGGCCTGTCGGGTCCCCTCGGG (CTTCGGGCCTGTCGGGTCCCCTCGGG; chemistry not given here) [SEQ. ID. NO. 18] ?
-- reply 55

-- ask Which % p24 production value belongs to GAGCTCTTCGTCGCTGTCTCCGCTTCT (GAGCTCTTCGTCGCTGTCTCCGCTTCT; chemistry not given here) [SEQ. ID. NO. 17] ?
-- reply 99

-- ask Which % p24 production value belongs to GCCTATTCTGCTATGTCGACACCCAA (GCCTATTCTGCTATGTCGACACCCAA; chemistry not given here) [SEQ. ID. NO. 35] ?
-- reply 56

-- ask Which % p24 production value belongs to TTGGGAGGTG GGTTGCTTTG (TTGGGAGGTGGGTTGCTTTG; chemistry not given here) [SEQ. ID. NO. 14] ?
-- reply 103
